molecular target: HLA-B*46:01; experiment: IEDB peptide-MHC binding, purified MHC/competitive/fluorescence; filed as Kd, often an IC50 or EC50 that approximates it; bounds were set here for any values at or beyond the usual limits of such assays; conditions: source organism: Escherichia coli str. K-12 substr. W3110
EXPERIMENTAL READOUT: Kd

Task item: Consider the sequence shown here: `IQFDWYPTS` What is its recorded Kd?
Reply: ≥ 20 µM

---

molecular target: HLA-A*02:06; experiment: IEDB peptide-MHC binding, purified MHC/competitive/fluorescence; filed as Kd, often an IC50 or EC50 that approximates it; bounds were set here for any values at or beyond the usual limits of such assays; settings: source organism: Orthomarburgvirus marburgense
EXPERIMENTAL READOUT: Kd

Task item: Endpoint output: Kd of `GFPSLESSF` . Value?
Reply: 2920 nM

Task item: What would you report for `KNYPASLHK` ?
Reply: 627 nM
